Test system: SNB-19
Test: NCI tumour cell line growth inhibition, 48 h
The source made the active and inactive calls. No stated cut-off is given here; in the data, active = GI50 up to about 1.1 µM and inactive = higher.
I would appreciate it if you answered using one of these outcomes: true (1) = active, false (0) = inactive

Exercise: Query: recorded result category for Cc1nc2ccc(NC3OC(CO)C(O)C(O)C3O)cc2c(=O)n1-c1ccccc1 (stereo not given) in this test
Solution: false (0)

Exercise: And CN(C)C1C(O)=C(C(=O)NCN2CCCC2)C(=O)C2(O)C(O)=C3C(=O)c4c(O)cccc4C(C)(O)C3CC12 (stereo not given) ?
Solution: false (0)

Exercise: Can you handle COC(=O)C1=C(O)c2cc(-c3ccccc3)c(-c3ccccc3)c(C#N)c2NC(=O)C1 next?
Solution: false (0)

Exercise: CC1CN(c2cc3c(cc2F)c(=O)c(C(=O)O)cn3-c2ccc(N3CCN(C)CC3)cn2)CC(C)N1 (stereo not given) , same question.
Solution: false (0)

Exercise: Now try COc1cc2c(cc1O)NC(=O)[C@@H]1CCCN1C2=O .
Solution: false (0)

Exercise: Please answer likewise for CN(C)CCNc1nc2ccccc2c2c1C(=O)c1ccccc1-2
Solution: true (1)

Exercise: What do we get for Cc1cc2c(C)n[nH]c2c(C(=O)O)c1C ?
Solution: false (0)

Exercise: Do the same for CN(C(=O)Cc1cccc(N=C=S)c1)[C@H]1CCCC[C@@H]1N1CCCC1 please
Solution: false (0)

Exercise: Same question for Cc1cc(=O)oc2c(C)c3oc(CBr)cc3cc12 please.
Solution: false (0)

Exercise: Try the compound COc1cc(CCc2ccncc2)cc(OC)c1OC
Solution: false (0)
